conditions: buffer; pH 7.4; 200.0 µM
Is solubility kinetic at least 30 µg/mL? Then MET. If not, NOT MET.

Sample answers from the record:
Cc1ccc(C)c(C(=O)OCC(=O)N(C)c2ccccc2)c1
MET
CC(=O)N(Nc1ccccc1)c1ccccc1
MET
Oc1c(Cl)cc(Cl)cc1C1Nc2ccccc2-n2cccc21 (centres undefined)
NOT MET

IN: Is it the case that "Cc1cc(C(=O)CCC(=O)Nc2ncccc2C)c(C)s1" has solubility kinetic reaching or exceeding 30 µg/mL?
OUT: NOT MET

IN: hey, is solubility kinetic for this one >= 30 µg/mL? "CC(=O)N1CCN(c2ccc(C(N)=O)cc2[N+](=O)[O-])CC1"
OUT: MET

IN: Please tell me: is the molecule Cc1ccc(NC(=O)CN2C(=O)NC(C)(c3ccc4c(c3)OCO4)C2=O)cc1 (centres undefined) at or over 30 µg/mL in terms of solubility kinetic?
OUT: MET

IN: I'd appreciate it if you could say whether "CC(=O)NS(=O)(=O)c1ccc(NC(=O)c2cccc3ccccc23)cc1" has solubility kinetic at least equal to 30 µg/mL.
OUT: MET

IN: Assess whether reported solubility kinetic for "COc1cccc(C(=O)NOCc2ccc(C)cc2)c1OC" sits at 30 µg/mL or higher.
OUT: MET

###

conditions: buffer; pH 7.4; 200.0 µM
observation-type: solubility kinetic (µg/mL)
Give bare numbers, in µg/mL.

CCN1CCN(CC(=O)Nc2ccc(C(C)=O)cc2)CC1.Cl
45.2
CCOc1ccc(/C=C(\C#N)C(=O)Nc2ccccn2)cc1
2.7
CC1CN(CC(=O)NCc2ccccc2)CC(C)O1 (centres undefined)
36.1
Cc1ccc(NC2=C(Cl)C(=O)OC2OC(=O)c2ccc(C)cc2)cc1 (centres undefined)
2.6
O=C(CN1CCN(c2ccccc2F)CC1)NCc1ccccc1
40.8

For each entry beneath this line, provide reported solubility kinetic.
1. CC(=O)Nc1cccc(C(=O)Nc2nc(C)cs2)c1
2. Cc1ccc2nc(-c3ccsc3)c(NC3CCCC3)n2c1

OUT:
[37.4, 1.6]

Please report solubility kinetic for every entry that follows.
1. Cc1nc(SCC(=O)NC2CCS(=O)(=O)C2)c2c3c(sc2n1)CCC3 (centres undefined)
2. CN(C)S(=O)(=O)c1cccc(C(=O)NCC2CCCCC2)c1

OUT:
[7.3, 2.8]

###

details: buffer; pH 7.4; 200.0 µM
Can you tell me solubility kinetic for the items I'm about to list?

Before answering, review these 2 worked examples.
CN(C)c1ccc(NC(=O)CN2C(=O)c3ccccc3C2=O)cc1
11.3 µg/mL
N#Cc1c(-c2ccncc2)cc(-c2ccc(F)cc2)nc1N
0.5 µg/mL

Hi team, please reply with solubility kinetic for each item in this list.
1. CCN(CC)CC(O)COC(c1ccccc1)c1ccccc1 (stereo not drawn)
2. O=C(NC1=NCCS1)c1ccccc1Cl
3. CC(C)(C)c1ccc(C(=O)N2CCN(C(=O)c3cccs3)CC2)cc1
4. O=C(NCCCN1CCOCC1)c1ccc(Cl)cc1Cl

OUT:
1. 41.8 µg/mL
2. > 36.1 µg/mL
3. > 53.5 µg/mL
4. > 47.6 µg/mL

Hi! Can you tell me solubility kinetic for each of these molecules?
1. O=C(CN1C(=O)c2ccccc2S1(=O)=O)NCc1ccco1
2. COc1ccc(O)c(/C=C2/SC(=S)N(Cc3ccccc3)C2=O)c1
3. N#C/C(=C(/O)c1ccco1)c1nc2ccccc2s1

OUT:
1: > 48 µg/mL; 2: < 0.8 µg/mL; 3: > 40.2 µg/mL

###

details: buffer; pH 7.4; 200.0 µM
Is solubility kinetic at least 5 µg/mL? Then 1 (yes). If not, 0 (no).

Use these answered entries as a reference point.
O=C(O)c1ccc(Nc2ccc(Cl)c(Cl)c2)c([N+](=O)[O-])c1
1 (yes)
CCN1CCN(c2nc(Nc3cccc(F)c3)nc(N)c2[N+](=O)[O-])CC1
1 (yes)
COc1ccc(Cl)cc1N=Cc1c(O)n(C)c(=O)n(C)c1=O
0 (no)

IN: Answer whether solubility kinetic of CC1CC(C)CN(C(=O)c2ccc3nc[nH]c3c2)C1 (stereo not given) is greater than or equal to 5 µg/mL.
OUT: 1 (yes)

IN: In plain terms: is recorded solubility kinetic at least 5 µg/mL for Cc1noc(C)c1C(=O)OCC(=O)N(C)C1CCS(=O)(=O)C1 (stereo not given) ?
OUT: 1 (yes)

IN: Please tell me: is the molecule "Cn1cnnc1SCC(=O)Nc1ccccc1F" at or over 5 µg/mL in terms of solubility kinetic?
OUT: 1 (yes)

IN: Could you tell me if the measured solubility kinetic of "Cc1nc2ccccc2c(=O)n1CCCN1CCOCC1" reaches 5 µg/mL or more?
OUT: 1 (yes)

IN: Is the recorded value of solubility kinetic equal to or greater than 5 µg/mL for this molecule? "COc1ccc(S(=O)(=O)N2CC(=O)Nc3ccccc32)cc1F"
OUT: 1 (yes)

IN: Does solubility kinetic meet or surpass 5 µg/mL for "CC(C)(C)c1ccc(OC(=O)N2CCOCC2)cc1" ?
OUT: 1 (yes)

IN: Check this molecule for solubility kinetic at or above 5 µg/mL: N#CCNC1CC(=O)N(c2ccccc2)C1=O (stereo not given)
OUT: 1 (yes)

###

settings: buffer; pH 7.4; 200.0 µM
Could you label it MET if measured solubility kinetic is 2 µg/mL or higher, and NOT MET otherwise?

Example entries and their recorded answers appear below.
O=C(COC(=O)C1=COCCO1)Nc1ccc(Br)cc1Br
MET
Clc1ccccc1-c1csc(Nc2cccnc2)n1
NOT MET
O=C(CCCc1nc2ccccc2s1)NCc1cccnc1
MET
CCCn1cnc2cc(NC(=O)c3ccco3)ccc21
MET
CC(Nc1ccc2c(c1)OCCO2)C(=O)N1c2ccccc2CC1C (configuration not stated)
MET

Query molecule follows.
IN: Is solubility kinetic for Cc1ccccc1CS(=O)(=O)CC(O)CN1CCCC1=O (configuration not stated) at or above 2 µg/mL?
OUT: MET

###

conditions: buffer; pH 7.4; 200.0 µM
observation-type: log10 of solubility kinetic (log10 of the value in µg/mL)
Values reflect log10 of reported solubility kinetic (µg/mL).

Sample answers from the record:
CN1C(=O)c2ccc(NC(=O)c3ccc(Cl)cc3Cl)cc2C1=O
0.32
Cc1ccc(CNC(=O)c2cc(=O)c3ccc(C)cc3o2)cc1
0.41
Cc1ccccc1-c1cn(-c2ccccc2)c(=S)[nH]1
0.79
CCOC(=O)C1CCN(c2ncnc3cc(OC)c(OC)cc23)CC1
1.71
CCS(=O)(=O)Nc1cccc(-c2nc3cccnc3s2)c1
1.66
COc1ccc(-c2cc(C(=O)NCc3cccs3)no2)cc1
-0.52

IN: log10 of solubility kinetic lookup needed for "Cc1ccc(SCCSc2nc(C)cc(=O)[nH]2)cc1" , thanks.
OUT: 0.32

###

settings: buffer; pH 7.4; 200.0 µM
observation-type: log10(solubility kinetic) (log10 of the value in mg/mL)
Quick note: numbers are log10 of solubility kinetic, with mg/mL as the unit.

For orientation, consider the following solved cases.
Cc1ccc(NC2=CC(=O)CC(C)(C)C2)cc1F
-1.50
COc1ccc(Br)c(C(=O)OCC(=O)N2CCc3ccccc32)c1
-2.64
CCc1ccccc1NC(=O)N1CCCc2ccccc21
-1.64
O=C(NC1(C(F)(F)F)NC(=O)N(C2CCCCC2)C1=O)c1ccco1 (stereo not given)
-1.30

I need log10(solubility kinetic) for every entry listed below, if you could help.
1. Cc1ccc(OCc2nc(-c3cccs3)no2)c([N+](=O)[O-])c1
2. CC(C)c1ccc(N(CC(=O)N2CCN(Cc3ccccc3)CC2)S(C)(=O)=O)cc1
3. Cc1cccc(CC2CC(=O)N(c3nc4ccccc4s3)C2=O)c1 (stereo not given)
4. Cc1cccc(CCNCc2cc3cc(C)cc(C)c3[nH]c2=O)c1
5. COc1ccc(NC(=O)C2CCCN(c3ncccn3)C2)cc1 (stereo not given)

OUT:
-3.05
-1.39
-1.78
-1.37
-1.84

Parameters: items (list). Returns: log10(solubility kinetic) for each item.
1. Cc1ccc(NC(=O)Cn2cnc3cc([N+](=O)[O-])ccc3c2=O)cc1
2. COc1cc(OC)c(OC)cc1CNCCNC(=O)c1ccco1
3. CCOC(=O)Cc1c(C)nc(N)[nH]c1=O
4. Cc1ccc(NC(=O)C/C(N)=N/OC(=O)c2ccccc2)cc1
5. c1ccc(CCn2cnc3ccccc32)cc1

OUT:
[-2.41, -1.35, -1.51, -2.66, -1.53]

###

details: buffer; pH 7.4; 200.0 µM
Consider the following compounds; for each one, report its solubility kinetic.
Give bare numbers, in µg/mL.

Cn1c(CNC(=O)c2ccccc2F)cc2ccccc21
10.1

Quick one: give me solubility kinetic for each item below, same order please.
1. Cc1ccc(C)c(NC(=O)CSc2nc(C)cs2)c1
2. COc1ccccc1NC(=S)NC1CCCC1
3. Cc1cccc(C(C)C)c1NC(=O)c1cc2ccccc2o1
4. Cc1cc(C)c2c(-c3ccc(F)cc3)c(C#N)c(=O)n(C)c2n1
5. Cc1ccccc1C(=O)NC(=S)NC1CC1
6. Cc1ccc(C)c(-c2csc(NC(=O)C3=COCCO3)n2)c1
7. CC(C)Oc1ccc(Cn2c(=O)oc3ccccc32)cc1
8. COc1ccc(OC2CCN(C(=O)Nc3ccc(C)cc3)CC2)cc1

OUT:
[39.9, 35.9, 6.1, 0.6, 16.3, 11.3, 0.7, 0.4]

Each compound below has a reported value. Please supply its solubility kinetic.
1. COc1ccc(N2C(=O)c3ccccc3C2=O)cc1
2. CCOC(=O)C(=CNc1ccc(Cl)cn1)C(=O)OCC

OUT:
1. 10.7
2. 1.2
